Experiment: chemical genetic growth profiling, strain panel (AID 1159580);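 also: tested at 20 µM; growth read once vehicle control cultures reached saturation at 30 °C; 1 = growth at the plate median or of vehicle wells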
Conditions: S. cerevisiae deletion strains, growth OD, locus YBR231C, strain swc5, stronger effect = lower value
Screen size: about 5,500 compounds; about 2,000 (36%) were called active. Roughly 18% stayed inconclusive and do not appear here. This is one part of the list.
reported endpoint: normalized growth
The answer should be a number; do not append a unit.

Recorded results for 3 molecules are shown here.
[[record]]
molecule = "COC1=CC(C)[C@@H]2C[C@H]3OC(=O)C[C@H]4C(C)=C(OC)C(=O)C([C@@]34C)[C@@]2(C)C1=O (stereo partly drawn)"
endpoint_result = 0.988

[[record]]
molecule = "CC1(C)S[C@@H]2C(N3C(=O)[C@@H](c4ccccc4)NC3(C)C)C(=O)N2[C@H]1C(=O)O (stereo partly drawn)"
endpoint_result = 0.975

[[record]]
molecule = "CN[C@H]1CC[C@@H](c2ccc(Cl)c(Cl)c2)c2ccccc21"
endpoint_result = 0.89


Q: Dear colleague, I am looking for the recorded normalized growth of the following molecule: `CO[C@@H]1[C@@H](OC(N)=O)[C@@H](O)[C@H](Oc2ccc3c(O)c(NC(=O)c4ccc(O)c(CC=C(C)C)c4)c(=O)oc3c2C)OC1(C)C`
A: 1.04

Q: Another molecule to check: `NCCCC(O)(P(=O)(O)O)P(=O)(O)O`
A: 0.977

Q: Another molecule to check: `NC(=O)c1ccccc1O`
A: 0.988

Q: Another molecule to check: `CSc1nc(NC(C)C)nc(NC(C)C)n1`
A: 0.961

Q: Another molecule to check: `CN(C)CC[C@H](c1ccc(Cl)cc1)c1ccccn1`
A: 0.989

====

Assay: chemical genetic growth profiling, strain panel (AID 1159580)
Conditions: S. cerevisiae deletion strains, growth OD, locus YKR001C, strain vps1, stronger effect = lower value
In all, about 5,500 compounds went through this assay and about 2,000 (36%) were called active. About 18% were inconclusive and are not listed. The list shows a part of the results.
reported endpoint: normalized growth
The answer should be a number; do not append a unit.

Recorded results for 3 compounds are shown here.
[[record]]
compound = "C[C@H]1[C@H](C)CC[C@]2(C(=O)O)CC[C@]3(C)C(=CCC4[C@@]5(C)C[C@@H](O)[C@H](O)[C@@](C)(CO)C5[C@H](O)C[C@]43C)[C@H]12 (some centres undefined)"
reported_endpoint = "normalized growth"
endpoint_result = 0.855

[[record]]
compound = "COC1=CC(C)[C@@H]2C[C@H]3OC(=O)C[C@H]4C(C)=C(OC)C(=O)C([C@@]34C)[C@@]2(C)C1=O (some centres undefined)"
reported_endpoint = "normalized growth"
endpoint_result = 0.986

[[record]]
compound = "CC1(C)Oc2ccc3ccc(=O)oc3c2CC1O (centres undefined)"
reported_endpoint = "normalized growth"
endpoint_result = 1.03


Q: Dear colleague, I am looking for the recorded normalized growth of the following compound: CC1=CC(=O)C2C(C)(C)CCC[C@]2(C)[C@@]1(O)CCc1ccoc1 (some centres undefined)
A: 1.04

Q: Another compound to check: `CN(C)C(=O)C(CCN1CCC(O)(c2ccc(Cl)cc2)CC1)(c1ccccc1)c1ccccc1`
A: 1.01

Q: Another compound to check: `NC(N)=Nc1ccc(Cl)cc1`
A: 0.999

Q: Another compound to check: NC[C@H]1O[C@H](OC2[C@@H](N)C[C@@H](N)[C@H](O[C@H]3O[C@H](CO)[C@@H](O)[C@H](N)[C@H]3O)[C@H]2O)[C@H](O)[C@@H](O)[C@@H]1O (some centres undefined)
A: 0.994

Q: Another compound to check: `CC(=O)O[C@@H]1c2c(ccc3ccc(=O)oc23)OC(C)(C)[C@@H]1OC(=O)CC(C)C`
A: 1.01

Q: Another compound to check: `O=C(Oc1ccccc1C(=O)O)c1ccccc1O`
A: 0.986

====

Assay: chemical genetic growth profiling, strain panel (AID 1159580)
Details: S. cerevisiae deletion strains, growth OD, locus YCL011C, strain gbp2, stronger effect = lower value
Hit rate of the full screen: of about 5,500 compounds, about 2,000 (36%) were called active. About 18% were inconclusive and are not listed. Some of the results follow.
reported endpoint: normalized growth

Recorded results for 3 compounds are shown here.
[[record]]
compound = "CC1=CC(=O)C2C(C)(C)CCC[C@]2(C)[C@@]1(O)CCc1ccoc1 (stereo not given in full)"
endpoint_result = "0.996 (inactive)"

[[record]]
compound = "Nc1nc(/C(=C/CC(=O)O)C(=O)N[C@@H]2C(=O)N3C(C(=O)O)=CCS[C@H]23)cs1"
endpoint_result = "1 (inactive)"

[[record]]
compound = "COC(=O)[C@H]1[C@H]2C[C@H]3c4[nH]c5cc(OC)ccc5c4CCN3C[C@H]2C[C@@H](OC(=O)c2cc(OC)c(OC)c(OC)c2)[C@@H]1OC"
endpoint_result = "1.01 (inactive)"


Now for another entry.
Q: Dear colleague, I am looking for the recorded normalized growth of the following compound: `O=C(O)CCc1nc(-c2ccccc2)c(-c2ccccc2)o1`
A: 0.943 (inactive)

====

Assay: chemical genetic growth profiling, strain panel (AID 1159580);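 also: tested at 20 µM; growth read once vehicle control cultures reached saturation at 30 °C; 1 = growth at the plate median or of vehicle wells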
Conditions: S. cerevisiae deletion strains, growth OD, locus YMR078C, strain ctf18, stronger effect = lower value
Out of some 5,500 compounds screened, about 2,000 (36%) were called active. Not shown: some 18% with an inconclusive outcome. The list shows a part of the results.
reported endpoint: normalized growth
The answer should be a number; do not append a unit.

Recorded results for 3 compounds are shown here.
[[record]]
compound = "CN(C)C(=O)C(CCN1CCC(O)(c2ccc(Cl)cc2)CC1)(c1ccccc1)c1ccccc1"
reported_endpoint = "normalized growth"
endpoint_result = 1.01

[[record]]
compound = "C[C@H]1[C@H](C)CC[C@]2(C(=O)O)CC[C@]3(C)C(=CCC4[C@@]5(C)C[C@@H](O)[C@H](O)[C@@](C)(CO)C5[C@H](O)C[C@]43C)[C@H]12 (some centres undefined)"
reported_endpoint = "normalized growth"
endpoint_result = 0.979

[[record]]
compound = "O=C(CCCN1CCC2(CC1)C(=O)NCN2c1ccccc1)c1ccc(F)cc1"
reported_endpoint = "normalized growth"
endpoint_result = 0.985


Q: Dear colleague, I am looking for the recorded normalized growth of the following compound: CC(=O)O[C@@H]1CC2C(C)(C)CCC[C@]2(C)C2CC[C@]3(C)C(=CC(=O)O[C@H]3c3ccoc3)[C@@]21C (some centres undefined)
A: 0.986

====

Assay: chemical genetic growth profiling, strain panel (AID 1159580);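 also: tested at 20 µM; growth read once vehicle control cultures reached saturation at 30 °C; 1 = growth at the plate median or of vehicle wells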
Conditions: S. cerevisiae deletion strains, growth OD, locus YOR265W, strain rbl2, stronger effect = lower value
In all, about 5,500 compounds went through this assay and about 2,000 (36%) were called active. Another 18% or so got no clear call; they are omitted. The list shows a part of the results.
molecules and their reported normalized growth
The answer should be a number; do not append a unit.

Recorded results for 3 molecules are shown here.
[[record]]
molecule = "CC(C)(C)NCC(O)COc1cccc2c1C[C@H](O)[C@H](O)C2 (some centres undefined)"
endpoint_result = 1.01

[[record]]
molecule = "C/C=C/CC(C)C(O)C1C(=O)NC(CC)C(=O)N(C)CC(=O)N(C)C(CC(C)C)C(=O)NC(C(C)C)C(=O)N(C)C(CC(C)C)C(=O)NC(C)C(=O)NC(C)C(=O)N(C)C(CC(C)C)C(=O)N(C)C(CC(C)C)C(=O)N(C)C(C(C)C)C(=O)N1C (centres undefined)"
endpoint_result = 1.02

[[record]]
molecule = "CC1(C)C(O)CC(=O)C2(C)C1CC(O)C1(C)C2CCC2(C)C(c3ccoc3)OC(=O)C3OC321 (centres undefined)"
endpoint_result = 1.01


Now for another entry.
Q: Dear colleague, I am looking for the recorded normalized growth of the following molecule: `O=C(O)C1=CC(=C(c2ccc(O)c(C(=O)O)c2)c2ccc(O)c(C(=O)O)c2)C=CC1=O`
A: 0.99

====

Assay: chemical genetic growth profiling, strain panel (AID 1159580);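 also: tested at 20 µM; growth read once vehicle control cultures reached saturation at 30 °C; 1 = growth at the plate median or of vehicle wells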
Conditions: S. cerevisiae deletion strains, growth OD, locus YDR150W, strain NUM1
Screen size: about 5,500 compounds; about 2,000 (36%) were called active. About 18% were inconclusive and are not listed. No stated cut-off is given here; in the data, active means normalized growth mostly below about 0.91 (no sharp cut-off); inconclusive means no clear call, values can overlap the other calls; inactive means mostly above about 0.92. The list shows a part of the results.
Parameter call: string, one of 1.0 for active, 0.0 for inactive

[[record]]
compound = "COc1ccccc1N1CCN(C(=O)Nc2cc(Cl)cc(Cl)c2)CC1"
group_label = 0.0

[[record]]
compound = "CNC(=S)N/N=C\\c1cc(Br)cc(Br)c1O"
group_label = 1.0

[[record]]
compound = "CCN(CCS(=O)(=O)c1ccc(C)cc1)S(=O)(=O)c1ccccc1"
group_label = 0.0


Q: Assay result, entry `COc1ccc(-c2cc(=O)c3c(O)c(OC)c(O[C@H]4O[C@H](CO[C@@H]5O[C@@H](C)[C@H](O)[C@@H](O)[C@H]5O)[C@@H](O)[C@H](O)[C@H]4O)cc3o2)cc1` — outcome?
A: 0.0

Q: Another compound to check: `CSc1nc(NC(C)C)nc(NC(C)C)n1`
A: 0.0

Q: Another compound to check: `COc1cc(NC(=S)N2CCN(c3ccccc3OC)CC2)c(OC)cc1Cl`
A: 0.0

Q: Another compound to check: `CN(C)/C=C1\CSc2ccc(F)cc2C1=O`
A: 0.0

Q: Another compound to check: C[C@@H](CO)NC(=O)C1C=C2c3cccc4[nH]cc(c34)C[C@H]2N(C)C1 (some centres not stated)
A: 0.0
